pIC50 values for the compounds below.
system: Jurkat; assay: Cytotoxicity against human Jurkat cells assessed as growth inhibition after 72 hrs by MTT assay; format: functional, cell-based
# pIC50 is unitless: minus log10 of the molar concentration; print number only

[ask] Given CC(C)c1ccc2c(c1)CC[C@H]1[C@](C)(CNC(=S)N[C@H]3CCCC[C@@H]3N3CCCC3)CCC[C@]21C , state its recorded pIC50.
[reply] 5.35

[ask] Given CC(C)c1ccc2c(c1)CC[C@H]1[C@](C)(CNC(=S)N[C@H]3CCCC[C@@H]3N(C)C)CCC[C@]21C , state its recorded pIC50.
[reply] 5.36

[ask] Given CC(C)c1ccc2c(c1)CC[C@H]1[C@](C)(CNC(=S)N[C@@H]3CCCC[C@H]3N3CCCC3)CCC[C@]21C , state its recorded pIC50.
[reply] 5.47

[ask] Given C=CC1CN2CCC1CC2[C@H](NC(=S)NC[C@]1(C)CCC[C@]2(C)c3ccc(C(C)C)cc3CC[C@@H]12)c1ccnc2ccc(OC)cc12 (stereo partly drawn) , state its recorded pIC50.
[reply] 5.66

[ask] Given CC(C)c1ccc2c(c1)CC[C@H]1[C@](C)(CN)CCC[C@]21C , state its recorded pIC50.
[reply] 5.31

[ask] Given CC(C)c1ccc2c(c1)CC[C@H]1[C@](C)(C(=O)O)CCC[C@]21C [DEHYDROABIETIC ACID] , state its recorded pIC50.
[reply] 4.59

[ask] Given CC(C)c1ccc2c(c1)CC[C@H]1[C@](C)(CNC(=S)N[C@H]3CCCC[C@@H]3N)CCC[C@]21C , state its recorded pIC50.
[reply] 5.46

---

tested on: EJ; assay: Induction of apoptosis in human EJ cells assessed as viable cells at 5 uM after 24 hrs by annexin V-FITC/propidium iodide staining-based flow cytometric analysis (reference value: 99.6%); type: functional; conditions: read-out: Activity
Friendly reminder: viability at 5 µM below 0.6% is 1.0, at or above is 0.0.

Example results:
[ask] Does the reported viability at 5 µM of CC(C)c1ccc2c(c1)CC[C@H]1[C@](C)(CNC(=S)N[C@H]3CCCC[C@@H]3N3CCCC3)CCC[C@]21C stay below 0.6%?
[reply] 1.0

[ask] Does the reported viability at 5 µM of CC(C)c1ccc2c(c1)CC[C@H]1[C@](C)(CNC(=S)N[C@@H]3CCCC[C@H]3N3CCCC3)CCC[C@]21C stay below 0.6%?
[reply] 0.0

[ask] Does the reported viability at 5 µM of CC(C)c1ccc2c(c1)CC[C@H]1[C@](C)(CNC(=S)N[C@H]3CCCC[C@@H]3N)CCC[C@]21C stay below 0.6%?
[reply] 0.0

[ask] Does the reported viability at 5 µM of CC(C)c1ccc2c(c1)CC[C@H]1[C@](C)(CN)CCC[C@]21C stay below 0.6%?
[reply] 0.0

[ask] Does the reported viability at 5 µM of CC(C)c1ccc2c(c1)CC[C@H]1[C@](C)(CNC(=S)N[C@H]3CCCC[C@@H]3N(C)C)CCC[C@]21C stay below 0.6%?
[reply] 1.0

Please turn your attention to the following entry.
[ask] Does the reported viability at 5 µM of C=CC1CN2CCC1CC2[C@H](NC(=S)NC[C@]1(C)CCC[C@]2(C)c3ccc(C(C)C)cc3CC[C@@H]12)c1ccnc2ccc(OC)cc12 (stereo partly specified) stay below 0.6%?
[reply] 0.0
